Just for reference, PubChem BioAssay is where these values come from.

# Tested on: F380Y
# protocol.details: modulators of BK channel variants, profiling panel, selectivity assay, cell-based, U2OS BacMam, thallium flux, beta subunits (AID 1259406);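 also: initial slope of Thallos dye fluorescence rise after thallium is added; log ratio against the mean of 0.3% DMSO vehicle wells on the same plate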
# test.conditions: at 30 µM
observable: log fold change Tl+ flux
Keep the answer to the number alone.

The compound "CC(C)=CC(C)=NNc1c([N+](=O)[O-])cc(C(F)(F)F)cc1[N+](=O)[O-]" showed log fold change Tl+ flux equal to 0.0422

The compound "O=C(CNc1cc(C(F)(F)F)cc(C(F)(F)F)c1)c1ccc(Cl)cc1" showed log fold change Tl+ flux equal to -0.0386

The compound "NC(=O)c1nnn(-c2ccc([N+](=O)[O-])cc2)c1-c1ccccc1" showed log fold change Tl+ flux equal to 0.0114

The compound "NC(=NC(=O)c1cccs1)c1cccs1" showed log fold change Tl+ flux equal to 0.00622

The compound "CCCCC#Cc1ccc(C(=O)NNC(=O)Nc2ccccc2)o1" showed log fold change Tl+ flux equal to 0.0775

The compound "CC(C)c1ccc2c(c1)c(SC(C)(C)C)c(CC(C)(C)C(=O)O)n2Cc1ccc(Cl)cc1" showed log fold change Tl+ flux equal to -0.0174

The compound "Cn1c(Sc2cnc(=S)[nH]c2-c2ccc(Cl)cc2)nnc1C(F)(F)F" showed log fold change Tl+ flux equal to 0.000803

The compound CCOC(=O)CCSC1=NC(c2cccs2)C(C(=O)OCC)=C(C)N1 (stereo unspecified) showed log fold change Tl+ flux equal to -0.00248

The compound CS(=O)(=NS(=O)(=O)c1ccc(OC(F)(F)F)cc1)c1ccccc1 (stereo unspecified) showed log fold change Tl+ flux equal to 0.0244

The compound "O=C(Nc1csc(Cc2c(Cl)cccc2Cl)n1)NN1CCOCC1" showed log fold change Tl+ flux equal to 0.0786

The compound "Nc1ncnc2c1ncn2[C@@H]1O[C@H](CO)C[C@@H]1O" showed log fold change Tl+ flux equal to 0.0402

---

# protocol.details: HepG2 cytotoxicity, primary screen, cytotoxicity control for P. falciparum antimalarial project, cell-based, ATP luminescence (AID 2303);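 also: 0% = DMSO wells and 100% = digitonin-killed cells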
# test.conditions: HepG2 viability, 24-48 h, at 10 µM, stronger effect = higher value
Response field label: string, one of true (inhibition strictly below 30%) or false.

Input line: Consider the molecule "Cc1nc(N)nc(N)c1-c1ccc(Cl)cc1" . Is its inhibition strictly less than 30%?
Output line: true

Input line: Consider the molecule "O=C(NCCCN1CCOCC1)c1cccc(Nc2nccc(Nc3ccc(Oc4ccccc4)cc3)n2)c1" . Is its inhibition strictly less than 30%?
Output line: false

Input line: Consider the molecule "Nc1ncc(-c2cn[nH]c2)cc1-c1nc2ncc(Cl)cc2[nH]1" . Is its inhibition strictly less than 30%?
Output line: false

Input line: Consider the molecule CCC(CC)OC(=O)C(C)c1cccc(C(=O)c2ccccc2)c1 (centres undefined) . Is its inhibition strictly less than 30%?
Output line: true

Input line: Consider the molecule "O=C(Nc1ccc(-c2nc3ccc(NC(=O)c4ccc(Br)cc4)cc3[nH]2)cc1)c1ccc(Br)cc1" . Is its inhibition strictly less than 30%?
Output line: false

Input line: Consider the molecule "O=C(Cn1c(CCc2cccc(F)c2F)nc(=O)c2ccccc21)N(CCN1CCCC1)Cc1ccc(-c2ccc(C(F)(F)F)cc2)cc1" . Is its inhibition strictly less than 30%?
Output line: false

Input line: Consider the molecule "CC(C)(CNCc1ccc(Cl)cc1)c1nc(-c2ccc(Cl)c(O)c2)c(-c2ccncc2)[nH]1" . Is its inhibition strictly less than 30%?
Output line: false

Input line: Consider the molecule "Cc1ccc(Nc2ccnc(Nc3ccc4c(c3)CS(=O)(=O)C4)n2)cc1O" . Is its inhibition strictly less than 30%?
Output line: false

Input line: Consider the molecule "O=c1cc(NCCCNCc2ccc(Cl)c(Cl)c2)[nH]c2ccc(C(F)(F)F)cc12" . Is its inhibition strictly less than 30%?
Output line: true

Input line: Consider the molecule "Cc1ccc(Cn2cnc3cc(C(=O)Nc4ccc(-c5cccc(CN(C)C)c5)cc4)ccc3c2=O)o1" . Is its inhibition strictly less than 30%?
Output line: true

Input line: Consider the molecule "Cc1ccc(-c2cc(C(=O)Nc3ccc(S(=O)(=O)N4CCOCC4)cc3)[nH]n2)c(O)c1C" . Is its inhibition strictly less than 30%?
Output line: true

Input line: Consider the molecule "Cc1ccc(O)c(-c2cc(C(=O)Nc3ccc(S(=O)(=O)N4CCCCC4)cc3)[nH]n2)c1" . Is its inhibition strictly less than 30%?
Output line: false

Input line: Consider the molecule "Cc1nc(-c2ccc(-c3ccc(NC(=O)Nc4ccc(I)c(OCCN(C)C)c4)cc3)c(C)c2)no1" . Is its inhibition strictly less than 30%?
Output line: false

Input line: Consider the molecule "Cc1ccccc1Oc1ccc(Nc2ccnc(Nc3cccc(C(N)=O)c3)n2)cc1C(F)(F)F" . Is its inhibition strictly less than 30%?
Output line: true

Input line: Consider the molecule Cc1ccc(-n2c(C)cc(C(=O)CN3C(=O)NC(Cc4ccccc4)C3=O)c2C)cc1 (centres undefined) . Is its inhibition strictly less than 30%?
Output line: true

Input line: Consider the molecule "Cc1cccc2[nH]c(-c3cccc(-c4ccc(CN5CCC(C(N)=O)CC5)cc4)c3)nc12" . Is its inhibition strictly less than 30%?
Output line: true

Input line: Consider the molecule "O=C(/C=C/c1ccc(Cl)c(Cl)c1)NCCCCCN1CCC(C(=O)Nc2ccc(Cl)cc2)CC1" . Is its inhibition strictly less than 30%?
Output line: false

Input line: Consider the molecule "O=C(/C=C/c1ccc(Cl)c(Cl)c1)NCCCCCN1CCCN(C(=O)Nc2ccc(C(F)(F)F)cc2)CC1" . Is its inhibition strictly less than 30%?
Output line: false

Input line: Consider the molecule CCC(C)NC(=O)Nc1ccc(-c2cccc(-c3nc4c(C)cccc4[nH]3)c2)cc1 (centres undefined) . Is its inhibition strictly less than 30%?
Output line: false
